target: Ribosomal protein S6 kinase alpha-1 (Homo sapiens, UniProt Q15418); further: in the data inactive means no Kd found up to 30 µM
Sequence (Q15418 whole entry): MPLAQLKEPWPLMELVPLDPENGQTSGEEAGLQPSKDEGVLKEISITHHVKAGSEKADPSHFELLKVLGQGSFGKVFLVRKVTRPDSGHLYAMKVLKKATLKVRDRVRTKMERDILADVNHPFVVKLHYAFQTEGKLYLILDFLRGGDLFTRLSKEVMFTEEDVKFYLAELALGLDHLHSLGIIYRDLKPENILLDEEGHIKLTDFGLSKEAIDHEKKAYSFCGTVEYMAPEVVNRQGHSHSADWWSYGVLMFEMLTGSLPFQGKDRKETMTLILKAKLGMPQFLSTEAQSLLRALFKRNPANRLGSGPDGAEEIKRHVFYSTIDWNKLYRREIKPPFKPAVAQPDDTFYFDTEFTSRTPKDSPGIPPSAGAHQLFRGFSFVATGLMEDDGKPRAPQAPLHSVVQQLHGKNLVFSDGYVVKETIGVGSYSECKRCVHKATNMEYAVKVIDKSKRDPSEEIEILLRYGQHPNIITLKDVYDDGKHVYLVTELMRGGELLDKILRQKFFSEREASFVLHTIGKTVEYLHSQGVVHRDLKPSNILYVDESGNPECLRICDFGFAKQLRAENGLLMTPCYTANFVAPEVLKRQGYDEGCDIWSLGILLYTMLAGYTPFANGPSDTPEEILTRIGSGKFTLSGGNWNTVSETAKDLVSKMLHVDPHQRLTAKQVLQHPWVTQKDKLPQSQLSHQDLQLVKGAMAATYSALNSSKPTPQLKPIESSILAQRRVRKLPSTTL
Counter-ions that a name gives are not always drawn. Calls of active or inactive are those of the source.
Form entry, call: pick from active, inactive

These recorded examples may help you get a feel for the data.
CC(=O)c1cnc2ccc(-c3cc(Cl)c(O)c(Cl)c3)nc2c1N[C@H]1CC[C@H](CN(C)C)CC1 ... active
CN1CCN(CCOc2cc(OC3CCOCC3)c3c(Nc4c(Cl)ccc5c4OCO5)ncnc3c2)CC1 ... inactive
Cc1nc(NC(=O)N2CCC[C@H]2C(N)=O)sc1-c1ccnc(C(C)(C)C(F)(F)F)c1 ... inactive
O=C1NC(=O)[C@@H](c2cn3c4c(cccc24)CCC3)[C@@H]1c1c[nH]c2ccccc12 [TIVANTINIB] ... inactive
CO[C@H]1C[C@@H]2CC[C@@H](C)[C@@](O)(O2)C(=O)C(=O)N2CCCC[C@H]2C(=O)O[C@H]([C@H](C)C[C@@H]2CC[C@@H](O)[C@H](OC)C2)CC(=O)[C@H](C)/C=C(\C)[C@@H](O)[C@@H](OC)C(=O)[C@H](C)C[C@H](C)/C=C/C=C/C=C/1C ... inactive
C#Cc1cccc(Nc2ncnc3cc(OC)c(OCCCCCCC(=O)NO)cc23)c1 ... inactive
CCS(=O)(=O)N1CCN(c2ccc(Nc3ncc(C(N)=O)c(NC4CC4)n3)cc2)CC1 [Cerdulatinib Hydrochloride] ... inactive
CCNC(=O)C#Cc1ccc2c(c1)NC(=O)/C2=C(\Nc1ccc(CN(C)C)cc1)c1ccccc1 ... active
CCOc1cc2ncc(C#N)c(Nc3ccc(F)c(Cl)c3)c2cc1NC(=O)/C=C/CN(C)C ... inactive
CCCCCCCCCCCCCCCCCCOP(=O)([O-])OC1CC[N+](C)(C)CC1 ... inactive

Inquiry: Hey, what did the test say about `Cc1nc(Nc2n[nH]c3c2CN(C(=O)N[C@H](CN(C)C)c2ccccc2)C3(C)C)c2sccc2n1` ?
Reply text: active

Inquiry: Recorded test outcome, item `O=C(Nc1cc(C(F)(F)F)cc(C(F)(F)F)c1)c1cc(Cl)ccc1O`
Reply text: inactive

Inquiry: Query: recorded result category for `COc1cc([C@@H]2c3cc4c(cc3[C@H](O)[C@H]3COC(=O)[C@@H]23)OCO4)cc(OC)c1OC` in this test
Reply text: inactive

Inquiry: Recorded test outcome, item O=c1[nH]ccc2cc(OC3CCNCC3)ccc12 [SAR-407899 FREE BASE]
Reply text: inactive

Inquiry: // return assay outcome for `Cn1cc(-c2cnn3c(N)c(Br)c([C@@H]4CCCNC4)nc23)cn1`
Reply text: inactive
